These data points were gathered from PubChem BioAssay (NCI).

Here, each record is paired with measured growth data.
# Test system: SK-MEL-5 melanoma
# testSummary: NCI-60 one-dose screen, 48 h (100 = growth as untreated, 0 = no growth, -100 = all killed)
# assayContext: 10 µM unless noted
About 83,000 compounds went through this panel and 20% of them were active in at least one assay; those are over-represented in the sample as a whole. Active and inactive are the calls of the source. Rule for the calls: active = growth percent below 10; inactive = the rest.

{"molecule": "CCc1ncnc2c1ccn2C(C)c1ccc(OC)c(F)c1 (stereo not given)", "growth": "33% (inactive)"}
{"molecule": "Nc1ncnc2c1C(c1ccccc1)c1ccc3ccccc3c1O2 (stereo not given)", "growth": "77.7% (inactive)"}
{"molecule": "CC(=O)N1N=C(c2ccc(C(F)(F)F)c(F)c2)CC1c1[nH]c(C)c(C(=O)NCC(F)(F)F)c1C (stereo not given)", "growth": "81.7% (inactive)"}
{"molecule": "CS(=O)(=O)Nc1cc(-c2ccc3ncnc(Nc4ccc5c(cnn5Cc5cccc(F)c5)c4)c3c2)cnc1Cl", "growth": "-68.3% (active)"}
{"molecule": "Fc1cnccc1C1CC(c2ccc(N3CCNCC3)cc2)=NN1 (stereo not given)", "growth": "85.8% (inactive)"}

* * *

# Test system: SF-268 CNS
# testSummary: NCI-60 one-dose screen, 48 h
# assayContext: 10 µM unless noted
# Experimental: Cells are grown in 96 well plates and exposed to the test compound for 48 hours. Compounds are tested at a single concentration, which is 10^-5 M for most compounds. The reported endpoint is percent growth (GI% or GIPRCNT), where numbers from 0 - 100% represent growth inhibition, and numbers from -100% - 0 represent cell death. For example, a value of 40 represents 60% growth inhibition. A value of 0 means no net growth occurred over the course of the experiment. […]
About 83,000 compounds went through this panel and 20% of them were active in at least one assay; those are over-represented in the sample as a whole. Calls of active or inactive are those of the source. The calls were made as follows: active = growth percent below 10; inactive = the rest.
Classes used: 1.0 = active, 0.0 = inactive

{"compound": "NS(=O)(=O)c1ccc(N=Nc2c(O)n(Cc3ccccc3)c3ccc(Cl)cc23)cc1", "assignedLabel": 0.0}
{"compound": "OCCn1cc(-c2nc(-c3c[nH]c4ncccc34)cs2)c2cc(F)ccc21", "assignedLabel": 0.0}
{"compound": "C=CCc1c(O)c(C(=O)/C=C/c2ccccc2)c(OC)c2ccoc12", "assignedLabel": 0.0}
{"compound": "CCOc1ccc(NC(=O)CSc2oc(-c3ccccc3)nc2S(=O)(=O)c2ccc(C)cc2)cc1", "assignedLabel": 0.0}
{"compound": "CCOC(=O)c1c2c(n3cccc(F)c13)C(=O)c1ncccc1C2=O", "assignedLabel": 0.0}
{"compound": "C=C1C(=O)O[C@H]2[C@H]1CC/C(COC(=O)C(=O)c1cn(C)c3ccc(Cl)cc13)=C\\CC[C@@]1(C)O[C@@H]21", "assignedLabel": 1.0}
{"compound": "O=C(Nc1ccc(Oc2cccc(Cl)c2)c(Cl)c1)c1cnccn1", "assignedLabel": 0.0}
{"compound": "CC(C)COc1nc2c(c(=O)n(C)c(=O)n2C)n1C", "assignedLabel": 0.0}
{"compound": "Cc1cc(=O)n(C(=O)Nc2ccccc2Cl)c2cc(O)ccc12", "assignedLabel": 0.0}
{"compound": "Cc1[nH]c(C(=O)Nc2ccccc2OC2CCNCC2)c(Cl)c1Cl", "assignedLabel": 0.0}
{"compound": "C#CCOc1cccc(Nc2ncnc3ccc(NC(=O)C=C)cc23)c1", "assignedLabel": 0.0}
{"compound": "O=C(OC(CO)C(=O)NC12CC3CC(CC(C3)C1)C2)c1ccc(Cl)cc1 (stereo unspecified)", "assignedLabel": 0.0}
{"compound": "Cn1c(=O)cc2c3c(c(NCCCO)ccc31)C(=O)c1ccccc1-2", "assignedLabel": 0.0}
{"compound": "COc1ccc2c(c1)N(CCO)C1=C(C(=O)OC1)C2c1cccc(F)c1 (stereo unspecified)", "assignedLabel": 0.0}
{"compound": "CC(=O)Oc1ccc(/C(=C(\\C)c2ccc(Cl)cc2)c2ccc(OCCN3CCCCC3)cc2)cc1", "assignedLabel": 0.0}
{"compound": "CCCCNC(=O)CC1=C(C)/C(=C/c2[nH]c(-c3ccc[nH]3)cc2OC)N=C1C", "assignedLabel": 0.0}
{"compound": "N#Cc1c(-c2ccc(Cl)cc2)nc(NN2C(=O)c3ccccc3C2=O)nc1N1CCOCC1", "assignedLabel": 0.0}
{"compound": "COc1ccc(CN2c3ccccc3Sc3ccccc32)cc1F", "assignedLabel": 0.0}
{"compound": "Nc1ncnc2c1c(-c1cccc(Cl)c1)nn2CC(=O)N1CCOCC1", "assignedLabel": 0.0}
{"compound": "CCOC(=O)C1=C(N)Oc2c(sc3c(F)cccc23)C1c1ccc(O)cc1 (stereo unspecified)", "assignedLabel": 0.0}
{"compound": "CCCNc1nc2ccccc2c2c1S(=O)(=O)c1ccc(Cl)cc1C2=O", "assignedLabel": 0.0}

* * *

# Test system: COLO 205 colon
# testSummary: NCI-60 one-dose screen, 48 h
# assayContext: 10 µM unless noted
This is part of a sample that, as a whole, favours compounds with a hit. Of some 83,000 tested, about 20% had one in any assay. The source made the active and inactive calls. The calls were made as follows: active = growth percent below 10; inactive = the rest.
Classes used: active, inactive

{"molecule": "CCCC/C(CC)=N\\NS(=O)(=O)c1ccc([N+](=O)[O-])cc1", "assignedLabel": "inactive"}
{"molecule": "C[PH+](c1nc2ccccc2nc1[PH+](C)C(C)(C)C)C(C)(C)C.C[PH+](c1nc2ccccc2nc1[PH+](C)C(C)(C)C)C(C)(C)C.[Au+].[Cl-] (centres undefined)", "assignedLabel": "active"}
{"molecule": "CCCCCCCCCCC(CN(CC)CC)C(O)c1ccccc1 (centres undefined)", "assignedLabel": "active"}
{"molecule": "CCOC(=O)NC(C)C", "assignedLabel": "inactive"}
{"molecule": "Cc1cc(=O)oc2cc(OCc3nn4c(Nc5nc6ccccc6s5)c(-c5ccccc5)nc4s3)ccc12", "assignedLabel": "inactive"}
{"molecule": "COC(=O)/C=C1/SC(=Nc2ccc(C(F)(F)F)cc2)N(CCc2c[nH]c3ccc(O)cc23)C1=O", "assignedLabel": "active"}
{"molecule": "COc1ccc(Nc2nnc(-c3ccc(OC)c(OC)c3)o2)cc1", "assignedLabel": "inactive"}
{"molecule": "CNC(=O)c1[nH]cc(-c2ccc(OC)cc2)c1-c1cc(OC)c2c(c1OC)OCO2", "assignedLabel": "inactive"}
{"molecule": "COc1cc2c(cc1OCCCN1CCN(CCCOc3cc4c(cc3OC)C(=O)N3CCC[C@H]3C=N4)CC1)C=CC(C)(C)O2", "assignedLabel": "active"}

* * *

# System: LOX IMVI melanoma
# testSummary: NCI-60 one-dose screen, 48 h (100 = growth as untreated, 0 = no growth, -100 = all killed)
# assayContext: 10 µM unless noted
The panel holds about 83,000 compounds, 20% with a hit somewhere; the sample as a whole holds those more often.
propertyMeasured: growth (%)

{"compound": "COc1ccc(Nc2nc(-c3cc(O)c(C)c(C)c3O)cs2)cc1", "propertyMeasured": "growth", "readoutUnits": "%", "observedValue": 61.5}
{"compound": "CC1(C)CC(=O)C2=C(C1)N(c1ccc(OC(F)(F)F)cc1)C(N)=C(C#N)C2c1ccc(Br)cc1F (stereo not given)", "propertyMeasured": "growth", "readoutUnits": "%", "observedValue": 54.5}
{"compound": "CC(C)c1ccc(-n2c(=S)[nH]c3sc4cc(O)ccc4c3c2=O)cc1", "propertyMeasured": "growth", "readoutUnits": "%", "observedValue": 96.9}
{"compound": "Nc1c(C(=O)Nc2ccccc2F)sc2nc3c(cc12)CCCC3", "propertyMeasured": "growth", "readoutUnits": "%", "observedValue": 40.5}
{"compound": "N#Cc1nc(-c2ccc(F)cc2)oc1S(=O)(=O)N1CCCCC1", "propertyMeasured": "growth", "readoutUnits": "%", "observedValue": 1.69}
{"compound": "COc1cc2c(cc1OC)C(C)N(S(N)(=O)=O)CC2 (stereo not given)", "propertyMeasured": "growth", "readoutUnits": "%", "observedValue": 102}
{"compound": "Cn1c(=O)cc2c3c(c(NCCCO)ccc31)C(=O)c1ccccc1-2", "propertyMeasured": "growth", "readoutUnits": "%", "observedValue": 26.6}
{"compound": "CCCc1c(OC(=O)c2ccccc2)nc2[nH]c(=O)sc2c1C", "propertyMeasured": "growth", "readoutUnits": "%", "observedValue": 98.3}
{"compound": "COc1c(C(=O)Nc2ccc(C)c(Br)c2)ccc2ccccc12", "propertyMeasured": "growth", "readoutUnits": "%", "observedValue": 95.1}
{"compound": "COc1cc2ncnc(Nc3ccc(S(=O)(=O)Nc4cc(C)on4)cc3)c2cc1OCCCN1CCN(c2ccc(F)cc2)CC1", "propertyMeasured": "growth", "readoutUnits": "%", "observedValue": 89.8}
